Quick reference: MIK of the listed items.
System: S. pyogenes M
Assay: MIC by broth dilution (NCCLS M7-A2)
Type: cell-based
Conditions: 90% growth inhibition

# molecule, target_under_test, MIK (µg/mL)
records = [
    ("CC[C@H]1OC(=O)[C@H](C)[C@@H](O[C@H]2C[C@@](C)(OC)[C@@H](O)[C@H](C)O2)[C@H](C)[C@@H](O[C@@H]2O[C@H](C)C[C@H](N(C)C)[C@H]2O)[C@](C)(O)C[C@@H](C)CN(CCCNC(=O)N(CCC#N)c2cccc3ccccc23)[C@H](C)[C@@H](O)[C@]1(C)O [Example 28]", "S. pyogenes M", 4),
    ("CC[C@H]1OC(=O)[C@H](C)[C@@H](O[C@H]2C[C@@](C)(OC)[C@@H](O)[C@H](C)O2)[C@H](C)[C@@H](O[C@@H]2O[C@H](C)C[C@H](N(C)C)[C@H]2O)[C@](C)(O)C[C@@H](C)CN(CCCNC(=S)Nc2cccc3ccccc23)[C@H](C)[C@@H](O)[C@]1(C)O [Example 5]", "S. pyogenes M", 4),
    ("CC[C@H]1OC(=O)[C@H](C)[C@@H](O[C@H]2C[C@@](C)(OC)[C@@H](O)[C@H](C)O2)[C@H](C)[C@@H](O[C@@H]2O[C@H](C)C[C@H](N(C)C)[C@H]2O)[C@](C)(O)C[C@@H](C)CN(CCCNC(=O)Nc2ccc3ccccc3c2)[C@H](C)[C@@H](O)[C@]1(C)O [Example 12]", "S. pyogenes M", 8),
    ("CC[C@H]1OC(=O)[C@H](C)[C@@H](O[C@H]2C[C@@](C)(OC)[C@@H](O)[C@H](C)O2)[C@H](C)[C@@H](O[C@@H]2O[C@H](C)C[C@H](N(C)C)[C@H]2O)[C@](C)(O)C[C@@H](C)CN(CCCNC(=O)NC(C)c2cccc3ccccc23)[C@H](C)[C@@H](O)[C@]1(C)O (stereo partly drawn) [Example 10]", "S. pyogenes M", 16),
    ("CC[C@H]1OC(=O)[C@H](C)[C@@H](O[C@H]2C[C@@](C)(OC)[C@@H](O)[C@H](C)O2)[C@H](C)[C@@H](O[C@@H]2O[C@H](C)C[C@H](N(C)C)[C@H]2O)[C@](C)(O)C[C@@H](C)CN(CCCNC(=O)NC(C)C)[C@H](C)[C@@H](O)[C@]1(C)O [Example 1]", "S. pyogenes M", 32),
    ("CCOC(=O)CNC(=O)NCCCN1CC(C)CC(C)(O)C(OC2OC(C)CC(N(C)C)C2O)C(C)C(OC2CC(C)(OC)C(O)C(C)O2)C(C)C(=O)OC(CC)C(C)(O)C(O)C1C (stereo not drawn) [Example 9]", "S. pyogenes M", 64),
    ("CC[C@H]1OC(=O)[C@H](C)[C@@H](O[C@H]2C[C@@](C)(OC)[C@@H](O)[C@H](C)O2)[C@H](C)[C@@H](O[C@@H]2O[C@H](C)C[C@H](N(C)C)[C@H]2O)[C@](C)(O)C[C@@H](C)CN(CCCNC(=O)Nc2cc(OC)c(OC)c(OC)c2)[C@H](C)[C@@H](O)[C@]1(C)O [Example 11]", "S. pyogenes M", 64),
    ("CC[C@H]1OC(=O)[C@H](C)[C@@H](O[C@H]2C[C@@](C)(OC)[C@@H](O)[C@H](C)O2)[C@H](C)[C@@H](O[C@@H]2O[C@H](C)C[C@H](N(C)C)[C@H]2O)[C@](C)(O)C[C@@H](C)CN(CCCNC(=O)N(CCC#N)c2ccccc2C(F)(F)F)[C@H](C)[C@@H](O)[C@]1(C)O [Example 32]", "S. pyogenes M", 32),
    ("CC[C@H]1OC(=O)[C@H](C)[C@@H](O[C@H]2C[C@@](C)(OC)[C@@H](O)[C@H](C)O2)[C@H](C)[C@@H](O[C@@H]2O[C@H](C)C[C@H](N(C)C)[C@H]2O)[C@](C)(O)C[C@@H](C)CN(CCCNC(=S)NCc2ccccc2)[C@H](C)[C@@H](O)[C@]1(C)O [Example 4]", "S. pyogenes M", 4),
    ("CC[C@H]1OC(=O)[C@H](C)[C@@H](O[C@H]2C[C@@](C)(OC)[C@@H](O)[C@H](C)O2)[C@H](C)[C@@H](O[C@@H]2O[C@H](C)C[C@H](N(C)C)[C@H]2O)[C@](C)(O)C[C@@H](C)CN(CCCNC(=S)NCCCc2ccccc2)[C@H](C)[C@@H](O)[C@]1(C)O [Example 7]", "S. pyogenes M", 8),
    ("CC[C@H]1OC(=O)[C@H](C)[C@@H](O[C@H]2C[C@@](C)(OC)[C@@H](O)[C@H](C)O2)[C@H](C)[C@@H](O[C@@H]2O[C@H](C)C[C@H](N(C)C)[C@H]2O)[C@](C)(O)C[C@@H](C)CN(CCCNC(=O)N(CCC#N)CCCc2ccccc2)[C@H](C)[C@@H](O)[C@]1(C)O [Example 33]", "S. pyogenes M", 8),
    ("CC[C@H]1OC(=O)[C@H](C)[C@@H](O[C@H]2C[C@@](C)(OC)[C@@H](O)[C@H](C)O2)[C@H](C)[C@@H](O[C@@H]2O[C@H](C)C[C@H](N(C)C)[C@H]2O)[C@](C)(O)C[C@@H](C)CN(CCCNC(=S)N(CCC#N)c2cccc3ccccc23)[C@H](C)[C@@H](O)[C@]1(C)O [Example 31]", "S. pyogenes M", 4),
    ("CC[C@H]1OC(=O)[C@H](C)[C@@H](O[C@H]2C[C@@](C)(OC)[C@@H](O)[C@H](C)O2)[C@H](C)[C@@H](O[C@@H]2O[C@H](C)C[C@H](N(C)C)[C@H]2O)[C@](C)(O)C[C@@H](C)CN(CCCNC(=O)Nc2cccc3ccccc23)[C@H](C)[C@@H](O)[C@]1(C)O [Example 2]", "S. pyogenes M", 4),
    ("CCC1OC(=O)C(C)C(OC2CC(C)(OC)C(O)C(C)O2)C(C)C(OC2OC(C)CC(N(C)C)C2O)C(C)(O)CC(C)CN(CCCNC(=S)N(CCC#N)Cc2ccccc2)C(C)C(O)C1(C)O (stereo not drawn) [Example 30]", "S. pyogenes M", 4),
    ("CC[C@H]1OC(=O)[C@H](C)[C@@H](O[C@H]2C[C@@](C)(OC)[C@@H](O)[C@H](C)O2)[C@H](C)[C@@H](O[C@@H]2O[C@H](C)C[C@H](N(C)C)[C@H]2O)[C@](C)(O)C[C@@H](C)CN(CCCNC(=O)NCCc2ccccc2)[C@H](C)[C@@H](O)[C@]1(C)O [Example 8]", "S. pyogenes M", 8),
]
